Parameter Vd/F: see the listing below.
EXPERIMENTAL_DETAILS: clinical
COND: human, plasma (sorafenib); sample for sirolimus not named, oral
// note: answer is a bare numeric in L

Indicate the recorded Vd/F value for this molecule: CO[C@H]1C[C@@H]2CC[C@@H](C)[C@@](O)(O2)C(=O)C(=O)N2CCCC[C@H]2C(=O)O[C@H]([C@H](C)C[C@@H]2CC[C@@H](O)[C@H](OC)C2)CC(=O)[C@H](C)/C=C(\C)[C@@H](O)[C@@H](OC)C(=O)[C@H](C)C[C@H](C)/C=C/C=C/C=C/1C
138

Here is the next item to consider.
Indicate the recorded Vd/F value for this molecule: CNC(=O)c1cc(Oc2ccc(NC(=O)Nc3ccc(Cl)c(C(F)(F)F)c3)cc2)ccn1
807
